# Test system: cell viability
# test_description: MTT cell viability assay, more detailed investigation of screening hits
# Format: cell-based
# condition_details: cell type not stated
Ends that are not written are not given here.

{"columns": ["chain", "cell viability (MTT assay)"],
 "data": [
  ["DFVNFVKDMICRRRRRRRRR [Peptide A4610]", "reduced cell viability"],
  ["TYLYNKYSFKLRRRRRRRRR [Peptide A463]", "reduced cell viability"],
  ["DSGLFDFVNFVRRRRRRRRR [Peptide A469]", "reduced cell viability"]
]}

---

# measured_on: TLR4 (Mus musculus)
# Sequence (Q9QUK6 26-835): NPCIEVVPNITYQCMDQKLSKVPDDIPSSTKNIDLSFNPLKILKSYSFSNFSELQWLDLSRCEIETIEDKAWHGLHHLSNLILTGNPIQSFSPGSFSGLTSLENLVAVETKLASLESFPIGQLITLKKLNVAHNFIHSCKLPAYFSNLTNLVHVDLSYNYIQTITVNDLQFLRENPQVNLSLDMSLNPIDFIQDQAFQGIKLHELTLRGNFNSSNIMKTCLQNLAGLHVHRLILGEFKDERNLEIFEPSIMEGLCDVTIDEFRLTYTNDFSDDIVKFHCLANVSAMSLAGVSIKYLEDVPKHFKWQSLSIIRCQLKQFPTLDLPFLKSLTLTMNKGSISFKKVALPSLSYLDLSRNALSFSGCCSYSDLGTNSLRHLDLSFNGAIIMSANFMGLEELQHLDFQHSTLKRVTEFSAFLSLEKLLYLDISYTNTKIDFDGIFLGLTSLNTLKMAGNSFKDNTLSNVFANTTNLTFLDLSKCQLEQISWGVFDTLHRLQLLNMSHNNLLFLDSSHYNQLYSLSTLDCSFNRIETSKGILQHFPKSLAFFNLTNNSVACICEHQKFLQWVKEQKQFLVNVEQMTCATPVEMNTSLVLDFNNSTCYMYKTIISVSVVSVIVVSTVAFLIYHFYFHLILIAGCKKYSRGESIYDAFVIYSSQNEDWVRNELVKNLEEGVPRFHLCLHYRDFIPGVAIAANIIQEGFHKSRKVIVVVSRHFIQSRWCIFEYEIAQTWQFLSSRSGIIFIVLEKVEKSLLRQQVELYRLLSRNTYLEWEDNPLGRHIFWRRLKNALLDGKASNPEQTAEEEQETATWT
# Sequence (Q9JHF9 19-160 partner): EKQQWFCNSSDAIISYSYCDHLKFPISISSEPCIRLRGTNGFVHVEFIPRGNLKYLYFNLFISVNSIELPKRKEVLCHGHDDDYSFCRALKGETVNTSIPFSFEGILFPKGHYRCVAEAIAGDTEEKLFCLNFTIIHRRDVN
# test_description: LPS-induced TNFα in immortalised murine macrophages, ELISA
# Format: cell-based
# Set-up: endogenous in cells; immortalised murine bone-marrow-derived macrophages
# condition_details: peptide 1, 3, 6.25 and 12.5 μM, 20 ng/ml LPS, 6 h
readout_name: inhibition of TLR4-induced murine TNFα by shorter versions of sA464N9R

{"columns": ["substance", "measured_on", "assay_value"],
 "data": [
  ["9R-SFKLI (RRRRRRRRRSFKLI) [Peptide 9R-SFKLI]", "TLR4 (Mus musculus)", "did not"],
  ["9R-FKLI (RRRRRRRRRFKLI) [Peptide 9R-FKLI]", "TLR4 (Mus musculus)", "did not"],
  ["9R-SFKLFL (RRRRRRRRRSFKLFL) [Peptide 9R-SFKLFL]", "TLR4 (Mus musculus)", "did not"]
]}
